Ref: the supplement of paper PMC12667976

B1: library; numbered along this chain (parent)
chain: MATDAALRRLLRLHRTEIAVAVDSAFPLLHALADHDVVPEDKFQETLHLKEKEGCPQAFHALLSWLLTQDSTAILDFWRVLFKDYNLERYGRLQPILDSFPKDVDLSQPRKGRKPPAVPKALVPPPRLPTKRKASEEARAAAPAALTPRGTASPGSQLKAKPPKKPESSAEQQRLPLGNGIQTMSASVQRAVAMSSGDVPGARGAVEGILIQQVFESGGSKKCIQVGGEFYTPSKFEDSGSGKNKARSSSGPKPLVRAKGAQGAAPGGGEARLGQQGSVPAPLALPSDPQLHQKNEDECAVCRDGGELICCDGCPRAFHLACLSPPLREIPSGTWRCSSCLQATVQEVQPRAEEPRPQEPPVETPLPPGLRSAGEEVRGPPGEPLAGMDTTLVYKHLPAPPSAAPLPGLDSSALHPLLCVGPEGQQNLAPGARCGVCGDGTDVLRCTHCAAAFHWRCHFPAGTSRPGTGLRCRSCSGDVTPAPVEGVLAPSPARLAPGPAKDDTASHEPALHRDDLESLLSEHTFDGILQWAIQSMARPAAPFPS

variants of: B1; assay: AIRE transcriptional activation functional score (insulin promoter-GFP; nonsense median 0, synonymous median 1) (normalised score); higher = higher AIRE activity (more reporter activation); conditions: with insulin promoter-GFP reporter in HEK293
Criterion: AIRE transcriptional activation functional score meeting or surpassing 1. Met: t. Not met: f.

>>> answer_label("P430C")
"f"
>>> answer_label("H523N")
"t"
>>> answer_label("Q172V")
"t"
>>> answer_label("A2S")
"t"
>>> answer_label("N427K")
"f"
>>> answer_label("S476H")
"f"
>>> answer_label("V362E")
"t"
>>> answer_label("D389E")
"f"
>>> answer_label("R303I")
"t"
>>> answer_label("H14N")
"t"
>>> answer_label("S187F")
"f"
>>> answer_label("L210S")
"f"
>>> answer_label("G333E")
"f"
>>> answer_label("G305A")
"f"
>>> answer_label("R190G")
"f"
>>> answer_label("Q94I")
"t"
>>> answer_label("R356D")
"t"
>>> answer_label("G467L")
"t"
>>> answer_label("I18Q")
"f"
